This listing pairs compounds with measured TGI.
- Tested on: CAKI-1 renal
- ASSAY SUMMARY: NCI tumour cell line growth inhibition, 48 h

COMPOUND	ASSAYED TARGET	TGI
CN1CCCC1c1cccnc1.O=C(O)c1ccccc1O.O=C([O-])c1ccccc1[OH2+].O=C([O-])c1ccccc1[OH2+].O=C([O-])c1ccccc1[OH2+].[Mn+2] (centres undefined)	CAKI-1 renal	> 100 µM
CC1=CC2=C(C)C3(CC3)[C@@](C)(O)C(=O)C2=C1	CAKI-1 renal	0.744 µM
COc1ccc(/C=N/Nc2[nH]c(=S)nc3[nH]ncc23)cc1	CAKI-1 renal	> 100 µM
Oc1c2cccc1Cc1cccc3c1OCCOCCOCCOCCOc1c(cccc1Cc1cccc(c1O)C3)C2	CAKI-1 renal	> 100 µM

// returns reported TGI for input Cc1nn(-c2ccccc2)c2c1C1C(=C(c3ccc(Cl)cc3)N2)C(=O)Nc2ccccc21 (centres undefined)
> 100 µM

Also check CC1(C)N=C(N)N=C(N)N1c1ccc(OCC(=O)Nc2cccc(S(=O)(=O)F)c2)c(Cl)c1
> 100 µM

Also check Cc1nnc([S-])s1.[Au+].c1ccc([PH+](c2ccccc2)c2ccccc2)cc1
3 µM

Also check COc1cc2c3c(c1OC)-c1ccccc1C(C(OC(C)=O)c1ccccc1)C3N(C)CC2 (centres undefined)
> 100 µM

Also check COc1ccccc1C1C(C#N)=C(N)OC2=C1C(=O)CCC2 (centres undefined)
> 100 µM
